relative viability values by entry
# Test system: 621-102 (TSC2-deficient);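 also: immortalized renal angiomyolipoma cells stably carrying empty vector or TSC2, dosed in 384-well plates in DMEM, viability normalized to vehicle-treated wells within each plate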
# measurementProtocol: relative viability vs DMSO; higher = less cytotoxic
# conditionDetails: 10 µM; serum: 10% FBS; 72 h
measurementLabel: relative viability (%)

>>> valueobserved("O=C(CCCCCCC(=O)Nc1ccccc1)NO")
63.7
>>> valueobserved("OCCn1cc(-c2cnc3nnn(Cc4ccc5ncccc5c4)c3n2)cn1")
93.2
>>> valueobserved("O=C(O[C@H]1C[C@H]2CC[C@@H](C1)[N+]21CCCC1)C(O)(c1ccccc1)c1ccccc1 [Trospium chloride (Sanctura)]")
110
>>> valueobserved("NC1(Cc2ccc(Cl)cc2)CCN(c2ncnc3[nH]ccc23)CC1")
60.6
